Target: T1, recombinant human EGFRvIII protein (extracellular domain), denatured (human, UniProt P00533 298-623)
T1 construct: Same protein as m21 after 95 C for 5 min in PBS with 40 mM DTT (denatured, reduced); also called EGFRvIII Denatured
Protocol: ELISA Exp 1, mAb supernatant
Result Type: ELISA absorbance 405 nm (A405)
Field: numeric (A405). Do not append units.

Observe how each entry below is paired with its result.
Query block: # input binder: F263-5D8 (antibody, V domains shown, Mouse hybridoma mAb) VH: EVQLQQSGPDLVKPGSSVKISCKASGYTFTDYNIDWVKQSHGKSLEWIGTINPNYGGTSYNQKFKGKATLTVDKSSSTAYMELRSLTSEDSAVYYCARGYDYDLWFAYWGQGTLVTVSA VL: EIVLTQSPVFMAASPGEKVTITCSVSSSISSSNLHWYQQKSETSPKPWIYGTSNLASGVPVRFSGSGSGTSYSLTISSMEAEDAATYYCQQWSSYPLTFGAGTKLELK ; wanted: its ELISA absorbance 405 nm
Result block: 1.86

Query block: # input binder: F266-11B1 (antibody, V domains shown, Mouse hybridoma mAb) VH: QIQLVQSGPELKKPGETVKISCKASGYTFTTAGMQWVKKMPGKGFKWIGWINTHSGDPKYAEDFKGRFAFSLETYASTAYLQISNLKNEDTASYFCARTHIYDGYNYAMDYWGQGTSVTVSS VL: DVVMTQTPLSLPVSLGDQASISCRSSQSLVYSNGNTYLHWYLQKPGQSPKLLIYKVSNRFSGVPDRFSGSGSGTDFTLKISRVEAEDLGVYFCSQSTHVPFTFGSGTKLEIK ; wanted: its ELISA absorbance 405 nm
Result block: 2.2

Query block: # input binder: F266-11C8 (antibody, V domains shown, Mouse hybridoma mAb; also called 11H5 (11C8)) VH: QIQLVQSGPELKKPGETVKISCKASGYTFTTAGMQWVQKMPGKGFKWIGWINTHSGDPKYAEDFKGRFAFSLETYASTAYLQISNLKNEDTASYFCARTHIYDGYNYAMDYWGQGTSVTVSS VL: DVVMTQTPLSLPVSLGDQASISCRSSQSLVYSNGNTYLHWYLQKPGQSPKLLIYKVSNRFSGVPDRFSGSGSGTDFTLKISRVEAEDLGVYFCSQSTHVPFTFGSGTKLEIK ; wanted: its ELISA absorbance 405 nm
Result block: 2.1

Then there is this binder:
Query block: # input binder: F263-4E11 (antibody, V domains shown, Mouse hybridoma mAb) VH: DVQLQESGPGLVKPSQSLSLTCTVTGYSITSDYAWNWIRQFPGNKLEWMGYIGYNGRTSYNPSLKSRISITRDTSKNQFFLQLNYVTTEDTATFYCARLGRGFAYWGQGTLVTVSA VL: DILMTQSPSSMSVSLGDTVSITCHASQGINSNIGWLLQKPGKSFKGLIYHGTNLEDGVPSRFSGSGSGTDYSLTISSLESEDFADYYCVQYAQFPYTFGGGTKLEIK ; wanted: its ELISA absorbance 405 nm
Result block: 1.39
